For each entry below, report its pKi value.
target: human mu opioid receptor (Homo sapiens); construct: host or cells: CHO-K1; experiment: Radioligand binding assay on human mu opioid receptor
Sequence (P35372 whole entry): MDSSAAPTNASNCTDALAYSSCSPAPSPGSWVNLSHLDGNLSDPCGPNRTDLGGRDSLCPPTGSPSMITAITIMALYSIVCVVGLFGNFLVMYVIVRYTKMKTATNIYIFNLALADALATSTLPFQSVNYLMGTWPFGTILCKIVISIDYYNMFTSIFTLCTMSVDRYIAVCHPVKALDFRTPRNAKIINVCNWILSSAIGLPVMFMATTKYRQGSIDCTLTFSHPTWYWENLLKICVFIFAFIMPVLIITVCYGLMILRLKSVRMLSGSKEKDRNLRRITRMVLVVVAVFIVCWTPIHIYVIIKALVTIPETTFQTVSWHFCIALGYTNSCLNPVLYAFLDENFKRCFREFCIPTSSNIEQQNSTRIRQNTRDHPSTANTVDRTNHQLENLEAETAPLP
Numbers only, as −log10 of the molar value.

CCC(CC)CN(CCN1[C@@H]2CC[C@H]1C[C@@H](c1cccc(C(N)=O)c1O)C2)C(=O)[C@@H](O)CO    10.00

Provide the documented pKi with human mu opioid receptor (Homo sapiens) as the system for "CC(C)(C)CN(CCN1[C@@H]2CC[C@H]1C[C@@H](c1cccc(C(N)=O)c1O)C2)C(=O)[C@@H](O)CO"
9.60

Ref: patent US9199993B2
